tested on: HCT116 MTAP-deleted cell lines; assay: Cell viability assay (CellTiter-Glo, 7 days), HCT116 MTAP-deleted; type: cell-based; settings: Homo sapiens, HCT-116; cell viability, HCT116 MTAP-deleted; class symbols; read-out: CC50
# CC50 annotations

Solved cases (3 shown):
>>> recorded_measurement("Cn1nccc1-c1ccc(CN(C(=O)c2cc3c(cc2F)nc(N)c2cncn23)C23CC(C2)C3)c(F)c1")
"< 100 nM"
>>> recorded_measurement("C[C@H](c1ccc(C(F)(F)F)cn1)N(C(=O)c1cc2c(cc1F)nc(N)c1cncn12)C1CC1")
"< 100 nM"
>>> recorded_measurement("CN(C(=O)c1cc2c(cc1F)nc(N)c1cncn12)[C@@H]1COc2cc(-c3cnn(C(F)(F)F)c3)ccc21")
"< 100 nM"

Entry Nc1nc2cc(F)c(C(=O)N3C[C@H](F)CC[C@H]3c3ccc(C(F)(F)F)cn3)cc2n2cncc12 (single isomer, unassigned) , CC50 reported as 100 to 1000 nM

====

experiment: PK data (IV/PO) in Sprague-Dawley rat; format: in vivo; details: Sprague-Dawley, rat, in vivo, iv, 0.33 mg/kg, IV 0.33 mg/Kg
TEST READOUT: half-life (h)
Respond with the bare value in h.

Use these answered entries as a reference point.
>>> recorded_measurement("Nc1nc2cnc(C(=O)N3CCC[C@@H]4Oc5cc(C(F)(F)F)cc(F)c5[C@@H]43)cc2n2cncc12 (single isomer, unassigned) [Fg-53]")
4.6
>>> recorded_measurement("Nc1nc2cnc(C(=O)N3CCC[C@@H]4Oc5cc(OC(F)(F)F)cc(F)c5[C@@H]43)cc2n2cncc12 (single isomer, unassigned) [Fg-55]")
6
>>> recorded_measurement("Nc1nc2cc(F)c(C(=O)N3CCC[C@@H]4Oc5cc(C(F)(F)F)ccc5[C@@H]43)cc2n2cncc12 [Ff-104]")
3.7
>>> recorded_measurement("Cc1ncc2c(N)nc3cnc(C(=O)N4CCC[C@@H]5Oc6cc(OC(F)(F)F)ccc6[C@@H]54)cc3n12 [Ff-340]")
5.3
>>> recorded_measurement("Cc1ncn2c1c(N)nc1cnc(C(=O)N3CCC[C@@H]4Oc5cc(C(F)(F)F)ccc5[C@@H]43)cc12 [Ff-499]")
3.1

For record Nc1nc2ccc(C(=O)N3CCC[C@@H]4Oc5cc(C(F)(F)F)ccc5[C@@H]43)cc2n2cncc12 [Ff-111] the listed half-life is 5.9

====

assay: PK data (IV/PO) in Sprague-Dawley rat; assay type: in vivo; conditions: Sprague-Dawley, rat, in vivo, iv, 0.25 mg/kg, IV 0.25 mg/Kg, read-out: Vss
TEST READOUT: Vd (L/kg)
Write the value in L/kg as a bare number.

In plain terms, "Nc1nc2cnc(C(=O)N3CCC[C@@H]4Oc5cc(OC(F)(F)F)ccc5[C@@H]43)cc2n2cncc12" has a documented Vd of 1.45

====

system: HCT116 MTAP-deleted cell lines; test: Cell viability assay (CellTiter-Glo, 7 days), HCT116 MTAP-deleted; format: cell-based; conditions: Homo sapiens, HCT-116; cell viability assay, HCT116 MTAP-deleted; class symbols; read-out: CC50
CC50 listing for selected compounds.

Look over these answered cases.
>>> recorded_measurement("Nc1nc2cc(F)c(C(=O)N3CCO[C@@H]4Cc5cc(OC(F)F)ccc5[C@@H]43)cc2n2cncc12")
"< 100 nM"
>>> recorded_measurement("C[C@H]1CN(C(=O)c2cc3c(cc2F)nc(N)c2cnc(Br)n23)[C@H]2c3ccc(C(F)(F)F)cc3C[C@H]2O1 (single isomer, unassigned)")
"100 to 1000 nM"
>>> recorded_measurement("CCN(C(=O)c1cc2c(cn1)nc(N)c1cnc(C)n12)[C@@H]1COc2cc(C(F)(F)F)ccc21")
"< 100 nM"

// sample "Cc1ncn2c1c(N)nc1cc(F)c(C(=O)N(Cc3ccc(C(F)(F)F)cn3)C3(C)CC3)cc12" , its CC50 was < 100 nM

Field CC50 (entry Nc1nc2cc(F)c(C(=O)N3CC(C(F)(F)F)OCC3c3ccc(C(F)(F)F)cn3)cc2n2cncc12 (centres unmarked) ) reads 100 to 1000 nM

response.value for Nc1nc2cc(F)c(C(=O)N3CC[C@H]4C[C@@H]3c3ccc(OC(F)(F)F)cc3O4)cc2n2cncc12 (racemic) (field: CC50) = < 100 nM

CC50 reported for this compound "Cc1nn(C)c(C)c1N(Cc1ccc(C(F)(F)F)cc1F)C(=O)c1cc2c(cc1F)nc(N)c1cncn12" : < 100 nM

Sure, the documented CC50 for Nc1nc2cc(F)c(C(=O)N3CCC[C@@H]4Oc5cc(OC(F)(F)F)c(F)cc5[C@@H]43)cc2n2cncc12 (single isomer, unassigned) is < 100 nM

// CC50 value for "Nc1nc2cnc(C(=O)N3CCC4(CC4)[C@@H]4Oc5cc(OC(F)(F)F)ccc5[C@@H]43)cc2n2cncc12" : < 100 nM

Reported CC50 of "CN(C(=O)c1cc2c(cc1F)nc(N)c1cncn12)[C@@H]1COc2cc(C#CC(F)(F)F)ccc21" : 100 to 1000 nM

The value of CC50 measured for the compound "CN(C(=O)c1cc2c(cc1F)nc(N)c1cncn12)[C@@H]1CCc2cc([C@@H]3C[C@H]3C#N)ccc21" turned out to be < 100 nM

====

test system: Symmetric Di-methyl Arginine (SDMA) signal (PRMT5 inhibition) in HCT116 MTAP-deleted cells; assay: Symmetric di-methyl arginine image-based high content screen assay (SDMA assay), HCT116 MTAP-deleted; type: cell-based; settings: Homo sapiens, HCT-116, HCT116 MTAP-deleted, class symbols
TEST READOUT: EC50

>>> recorded_measurement("Nc1nc2cc(F)c(C(=O)N3CCC[C@@H]4Oc5cc(S(F)(F)(F)(F)F)ccc5[C@@H]43)cc2n2cncc12")
"≤ 1 nM"
>>> recorded_measurement("CN(C(=O)c1cc2c(cc1F)nc(N)c1cncn12)[C@@H]1COc2cc(F)ccc21")
"> 5 nM"
>>> recorded_measurement("Cc1ncc2c(N)nc3ccc(C(=O)N(C)[C@@H]4COc5cc(C#CC6(O)CC6)ccc54)cc3n12")
"> 5 nM"
>>> recorded_measurement("CN(C(=O)c1cc2c(cc1F)nc(N)c1cncn12)[C@@H](c1ccc(C(F)(F)F)cc1F)C(F)F")
"≤ 1 nM"
>>> recorded_measurement("CC(=O)N(C)N(Cc1nc2cc(Cl)ccc2s1)C(=O)c1ccc2nc(N)c3cncn3c2c1")
"> 5 nM"

# compound "Nc1nc2cnc(C(=O)N3CC[C@H]4C[C@@H]3c3ccc(C(F)(F)F)c(F)c3O4)cc2n2cncc12" ; its EC50 = ≤ 1 nM

Recorded EC50 (compound Nc1nc2cnc(C(=O)N3CCC[C@@H]4Oc5cc(C(F)(F)F)cc(F)c5[C@@H]43)cc2n2cncc12 (single isomer, unassigned) ): ≤ 1 nM

====

solubility at 24 h values, listed per item
assay: PBS solubility (kinetic solubility from DMSO stocks); format: physicochemical; conditions: 22 °C, aqueous buffer, kinetic from dmso stock; 1x PBS pH 7.4, 1.0% DMSO, 24-hour incubation at ambient temperature
// units = µM; emit number, no label

Consider the worked cases shown below.
>>> recorded_measurement("Nc1nc2cnc(C(=O)N3CCC[C@@H]4Oc5cc(OC(F)(F)F)cc(F)c5[C@@H]43)cc2n2cncc12 (single isomer, unassigned)")
13.7
>>> recorded_measurement("Nc1nc2cc(F)c(C(=O)N3CCC[C@@H]4Oc5ccc(C(F)(F)F)cc5[C@@H]43)cc2n2cncc12")
1.2
>>> recorded_measurement("Cc1ncc2c(N)nc3cnc(C(=O)N4CC[C@H]5C[C@@H]4c4cc(F)c(C(F)(F)F)cc4O5)cc3n12")
2.9
>>> recorded_measurement("Nc1nc2cnc(C(=O)N3CCC[C@@H]4Oc5c(ccc(C(F)(F)F)c5F)[C@@H]43)cc2n2cncc12")
2.3
>>> recorded_measurement("Nc1nc2cc(F)c(C(=O)N3CCO[C@@H]4Cc5cc(C(F)(F)F)ccc5[C@@H]43)cc2n2cncc12 (single isomer, unassigned)")
17.9
>>> recorded_measurement("Cc1ncn2c1c(N)nc1ccc(C(=O)N3CCC[C@@H]4Oc5cc(C(F)(F)F)ccc5[C@@H]43)cc12")
1.6
>>> recorded_measurement("Nc1nc2cnc(C(=O)N3CCC[C@@H]4Oc5cc(OC(F)(F)F)ccc5[C@@H]43)cc2n2cncc12")
1.7
>>> recorded_measurement("Cc1ncn2c1c(N)nc1cc(F)c(C(=O)N3CCCC[C@@H]3c3ccc(S(F)(F)(F)(F)F)cc3)cc12")
18.3

Please fill in: solubility at 24 h reported for "Cc1ncc2c(N)nc3cnc(C(=O)N4CC[C@H]5C[C@@H]4c4ccc(C(F)(F)F)c(F)c4O5)cc3n12" = 2.6

response.value for "Cc1ncc2c(N)nc3cnc(C(=O)N4CCC[C@@H]5Oc6cc(C(F)(F)F)cc(F)c6[C@@H]54)cc3n12" (field: solubility at 24 h) = 1.7

// field: solubility at 24 h; key: "[2H]C1([2H])CC[C@@H]2Oc3cc(C(F)(F)F)ccc3[C@@H]2N1C(=O)c1cc2c(cc1F)nc(N)c1cncn12" ; value = 4

// field: solubility at 24 h; key: "Cc1ncc2c(N)nc3cc(F)c(C(=O)N4CCC[C@@H]5Oc6nc(C(F)(F)F)ccc6[C@@H]54)cc3n12" ; value = 21.8

For this molecule ( "Nc1nc2cnc(C(=O)N3CC[C@H]4C[C@@H]3c3ccc(C(F)(F)F)cc3O4)cc2n2cncc12" ), measured solubility at 24 h is 34.9
